tested on: SKOV-3TR cells; experiment: Reversal of drug resistance, cytotoxicity (MTT) assay in SKOV-3TR; type: cell-based; conditions: Homo sapiens, SKOV3TR, Doxorubicin, add NSC23925 0.5 μM; read-out: SKOV-3TR IC50 of Doxorubicin
pIC50: −log10 of the molar value.
Reported property: pIC50

> print(dat)
                                   compound  measured
1  COc1ccc(-c2cc(C(O)C3CCCCN3)c3ccccc3n2)cc1 (stereo not shown)      5.17

---

tested on: SKOV-3TR cells; assay: Reversal of drug resistance, cytotoxicity (MTT) assay in SKOV-3TR; assay type: cell-based; conditions: Homo sapiens, SKOV3TR, ET-743, add NSC23925 0.1 μM; read-out: SKOV-3TR IC50 of ET-743
pIC50: −log10 of the molar value.
Reported property: pIC50

> print(dat)
                                   molecule  measured
1  COc1ccc(-c2cc(C(O)C3CCCCN3)c3ccccc3n2)cc1 (stereo not shown)      8.30
